// provenance: patent US20160185837A1

Measured cAMP EC50 accompanies every entry in the list below.
system.tested: human glucagon receptor (human, UniProt P47871 26-477)
measurement.description: cell-based or functional assay
measurement.kind: cAMP EC50

>>> observed_result("IP222 (Fc fusion) YSEGTFTSDYSKLLEEEAVRLFIEWLKNGGPSSGAPPPSAAAGGSGSTASSGSGSATGGGGAATHTCPPCPAPEF")
"590 nM"
>>> observed_result("IP374 (Fc fusion) YSEGTFTSLYSKLLEEEAVRLFIEWLLAGGGGGGSGGGGSGGGGSGGGGSATHTCPPC")
"> 2090 nM"
>>> observed_result("IP358 (Fc fusion) YSEGTFTSDFSKLLEEEAVRLFIEWLLAGGGGGGSGGGGSGGGGSGGGGSATHTCPPC")
"140 nM"
>>> observed_result("IP370 (Fc fusion) YSEGTFTSLYSKLKEEEAVRLFIEWLLAGGGGGGSGGGGSGGGGSGGGGSATHTCPPC")
"> 9490 nM"
>>> observed_result("IP279 (Fc fusion) YSEGTFTSDYSKLLEEEAVRLFIEWLVKGPSSGAPPPSGGGGGSGGGGSGGGGSGGGGSATHTCPPC")
"170 nM"
